Exercise: state measured koff for each of the binders provided.
SUBJECT_OF_TEST: T1, parental PvRBP2b_(169-470) (Plasmodium vivax reticulocyte-binding protein 2b, N-terminal domain) (Plasmodium vivax strain Salvador I, UniProt A5K736)
T1 construct: TEV cleavage site between the His tag and the protein; pPROEX HTb vector; also called parental construct; parental protein
TEST_DETAILS: BLI; Octet RED96; human mAb loaded on anti-human IgG Fc capture sensor tips; parental PvRBP2b169-470 or design in solution, 2-fold series 0.63 to 10 nM; 25 °C; PBS, 0.1% bovine serum albumin, 0.05% Tween-20; global fit 1:1 model; two independent experiments
EXPERIMENTAL_CONTEXT: both partners purified

Request: GET /values?readout=koff&item= human mAb 243244 (antibody, V domains shown, naturally acquired human mAb, recombinant IgG captured by its Fc; source: Expi293 HEK cells, transfected, purified (protein A, SEC)) VH: QVQLVESGGGVVQSGKSLRVSCAASGFTFSSYGMHWVRQAPGKGLEWVAFISYDGDNKYSADSVKGRLTISRDNSKNTLYLQMNSLRPEDTAVYYCAKESNYGENAFDIWGQGTMVTVSS VL: QSALTQPRSVSGSPGQSVTISCTGTSSDVGFYNFVSWYQHHPGKAPKLIIYDVSERPSGVPDRFSGSKSGNTASLSISGLQPEDEADYYCCSYAGTYTFVFGSGTKVTVL
Response: < 1e-07 s⁻¹

Request: GET /values?readout=koff&item= human mAb 273264 (antibody, V domains shown, naturally acquired human mAb, recombinant IgG captured by its Fc; source: Expi293 HEK cells, transfected, purified (protein A, SEC)) VH: EVQLLESGGGLVRPGGSQRLSCAASGFTFTPYAMTWVRQAPGKGLEWLSTISGSGGSTSYADSVKGRFTISRDNSKNILYLQMDSLRAEDTALYYCTKDKDEYTFGHNAFDVWGRGTMVTVSS VL: SYELTQAPSVSVAPGQTARITCGGDNIGRTSVHWYQQKPGQAPVLVIFYDNDRPSGIPERFSGSNSGNMATLSISRVEVGDEADYYCQVWDSNNDHPVFGGGTKLTVV
Response: < 1e-07 s⁻¹
